Biological target: ATP-dependent Clp protease proteolytic subunit (Bacillus subtilis (strain 168))
Test: qHTS Assay for Activators of ClpP; further: the source files actives as falling curves though it sought activators and does not explain the sign; nearly all actives have a fitted effect of over 65% in size
Conditions: purified B. subtilis ClpP, FRET peptide cleavage, 20 min; series mostly up to 57.5 µM
The whole screen tested about 340,000 compounds, of which about 6,400 (1.9%) were called active. Another 4% or so got no clear call; they are omitted. The call rests on the fitted dose curve; in most records, active means well fitted falling curve with a large enough effect; inconclusive means small, poorly fitted or top-dose-only effect; inactive means no such curve, though single readings can be large or run the other way. The list comes from a sample in which actives are over-represented; it also holds close analogues and randomly drawn compounds.
Response enum: Yes = active, No = inactive

Sample answers from the record:
molecule | target-under-test | group-label
C[N+](C)(CCCCCC[N+](C)(C)CCCN1C(=O)c2cccc3cccc(c23)C1=O)CCCN1C(=O)c2cccc3cccc(c23)C1=O | ATP-dependent Clp protease proteolytic subunit (Bacillus subtilis (strain 168)) | No
CCOc1ccc(NC(=O)N(CC(C)C)CC(C)C)cc1 | ATP-dependent Clp protease proteolytic subunit (Bacillus subtilis (strain 168)) | No
O[C@@H]1C[C@H](c2ccccc2)N(Cc2cccs2)C[C@H]1n1cc(C2CC2)nn1 | ATP-dependent Clp protease proteolytic subunit (Bacillus subtilis (strain 168)) | No
Cc1ccc(CC2(C)C(=O)Nc3ccc(OC(F)(F)F)cc32)cc1 (stereo not given) | ATP-dependent Clp protease proteolytic subunit (Bacillus subtilis (strain 168)) | No
CCc1ccc(-c2cc(C(=O)NCc3ccco3)c3ccccc3n2)s1 | ATP-dependent Clp protease proteolytic subunit (Bacillus subtilis (strain 168)) | Yes

What outcome does the record of this test show for CN(C)c1cccc2ccccc12 ?
No

Moving on to the next molecule: O=C(NCC(F)(F)F)c1ccc(S(=O)(=O)NCCc2ccc3c(c2)OCCO3)cc1
No

Please answer likewise for CCOc1ccc(NC(=O)N(CCC(C)C)C(C)c2ccco2)cc1 (stereo not given)
Yes

What do you have for CC(=O)NCCNC(=O)c1cc(-c2cccc3ccccc23)nc2ccccc12 ?
No

Repeat with CC(C)CCN(C(=O)Nc1ccc(Cl)c(Cl)c1)C(C)c1cccs1 (stereo not given)
No
